Source: the supplement of paper PMC10567573

B1: ZNF449 (parent)
chain: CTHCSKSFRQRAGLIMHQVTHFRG

- Variants of: B1
- assayInfo: protein stability index of a GFP-peptide fusion (GPS, HEK-293T) (PSI 1-6); higher = more stable;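 note: lentivirally expressed fusions sorted by FACS into six bins by GFP to DsRed ratio, PSI derived from sequencing read proportions per bin multiplied by bin number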
- assayConditions: c terminus: a fixed tail appended
quantityName: protein stability index
Give only the figure.

mutationSpec	protein stability index
H21T	1.47
L14H	2

*Q* For A12L , what is its reported protein stability index?
*A* 2.11

*Q* For R9S , what is its reported protein stability index?
*A* 3.04
